Source: patent US20240368275A1

pEC50 for assorted binders
# TEST SYSTEM: T1, human Nectin4-Fc fusion protein (human, UniProt Q96NY8 32-349)
# T1 construct: Recombinant protein coated in the scFv ELISA and captured on the anti-hFc chip in the scFv SPR; also called recombinant Nectin4-Fc fusion protein; human Nectin4-Fc protein; not shown: Fc part
# T1 sequence (looked up): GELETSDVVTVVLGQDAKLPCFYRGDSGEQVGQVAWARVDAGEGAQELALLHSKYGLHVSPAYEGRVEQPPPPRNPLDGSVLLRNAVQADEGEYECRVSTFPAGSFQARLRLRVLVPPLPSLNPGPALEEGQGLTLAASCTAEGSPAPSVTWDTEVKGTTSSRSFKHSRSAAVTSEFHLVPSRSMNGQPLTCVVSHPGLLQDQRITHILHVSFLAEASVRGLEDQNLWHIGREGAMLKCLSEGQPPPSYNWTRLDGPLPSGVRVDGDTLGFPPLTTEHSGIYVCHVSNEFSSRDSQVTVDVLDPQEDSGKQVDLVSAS
# TEST NAME: ELISA, coated human Nectin4-Fc, scFv titrated, anti-Flag HRP
pEC50: −log10 of the molar value.

BINDER | pEC50
2021EP032-E06 scFv (scFv, V domains shown) VH: QVQLVESGAEVKKPGASVKVSCKASGYTFTGYYMHWVRQAPGQGLEWMGRINPNSGGTNYAQKFQGRFTISRDNSKTTLFLQMNSLRAEDTAVYYCAKADYQWVGAIFRLNAFDIWGQGTMVTVSS VL: VIWMTQSPSSLSASVGDRVTITCRASQGISNYLAWYQQKPGKVPKLLIYAASTLQSGVPSRFSGSGSGTDFTLTISSLQPEDVATYYCQKYNSAPYTFGQGTKLEIK | 9.39
2021EP030-F02 scFv (scFv, V domains shown) VH: QVQLQESGPGLVKPSETLSLTCTVSGGSISSSSYYWGWIRQPPGKGLEWIGSIYYSGSTYYNPSLKSRVTISVDTSKNQFSLKLSSVTAADTAVYYCARQANQVVPAAIPWAKPGGTPPNWFDPWGQGTLVTVSS VL: QLVLTQPPSVSVAPGETARITCGGNNIGSKSVHWYQQKPGQAPVLVIYYDSARPSGIPERVSGSNSGNTATLTISRVEAGDEADYYCQVWDSSSDHPRVFGTGTKLTVL | 8.53
2021EP029-C04 scFv (scFv, V domains shown) VH: QLQLQQSGPGLVKPSQTLSLTCAISGDSVSSNRAAWSWIRQSPSRGLEWLGRTYYRSKWYNDYAVSVESRIIINPDTSKNQFSLQLNPVTPEDTAVYYCARGSFESTWLWGQGTLVTVSS VL: QAVVTQPHSVSESPGKTVTISCTRSGGSIANNYVHWYQQRPGSFPTALIYQDNQRRSGVPDRFSGSIDSSSNSASLTISGLKTEDEAEYYCQSFDNNNVVFGGGTQLTVL | 9.07
